pKi: −log10 of the molar value.
Across several publications, the following pKi results were reported for Adenosine receptor A1 (Homo sapiens).
Value Type: pKi

Solved entries (count: 5):
- Compound: "CC(C)Cn1c(=O)c2[nH]c(-c3cnn(Cc4cccc(C(F)(F)F)c4)c3)nc2n(CC(C)C)c1=O"
  Meas Value: 5.51
- Compound: "Cn1cc2nc(N)n3nc(-c4ccco4)nc3c2c1"
  Meas Value: 7.00
- Compound: "N=C(N)Nc1nc(OCCc2c[nH]c3ccccc23)nc2c1ncn2[C@@H]1O[C@H](CO)[C@@H](O)[C@H]1O"
  Meas Value: 7.13
- Compound: "Clc1cccc(-c2nc(N3CCCCC3)c3nc[nH]c3n2)c1"
  Meas Value: 7.30
- Compound: "O=C(Nc1ccc2[nH]ncc2c1)c1ccc[nH]1"
  Meas Value: 5.50

(A) Nc1nc(-c2ccc(NC(=O)CCCCC3CCSS3)cc2)cn2c(=O)n(-c3ccccc3)nc12 (configuration not stated)
(B) COC[C@H]1CCCN1c1cc(NC(=O)NC(C)C)nc(-n2nc(C)cc2C)n1
(C) Cn1cc2c(nc(NC(CO)CO)n3nc(-c4ccco4)nc23)n1
(D) O[C@@H]1[C@H](O)[C@@H](CF)O[C@H]1n1cnc2c(NC3CCOCC3)ncnc21
Rank by pKi (largest to smallest). Return value: ordered labels per request.
A, D, C, B
(A: 8.08, D: 7.60, C: 6.19, B: 5.89)

---

Across several publications, the following Ki results were reported for UniProtKB P30542.
Value Type: Ki (µM)

- Compound Structure: "COc1cccc(-c2cn3c(=O)n(-c4ccccc4)nc3c(N)n2)c1"
  Unit Abbreviation: "µM"
  Ki: 0.044

(P) N#Cc1c(N)nc(SCc2ncc[nH]2)c(C#N)c1-c1ccc(O)cc1
(Q) CCOC(=O)c1ccc(C(=O)Nc2ccc(-c3cn4c(=O)n(-c5ccccc5)nc4c(N)n3)cc2)cc1
(R) Nc1cc(-n2cccn2)nc(-c2ccco2)n1
(S) CCN(C(C)=O)c1ccc(OC)c2nc(NC(=O)N3CCC(O)(c4cccc(C(F)(F)F)c4)CC3)sc12
Which order do these items take when sorted by rising Ki? List them. Return value: ordered labels per request.
P, S, R, Q

---

pKi: −log10 of the molar value.
Across several publications, the following pKi results were reported for Adenosine receptor A1 (Homo sapiens).
Value Type: pKi

Solved entries (count: 10):
- Molecule: "Cc1csc(-c2nc(N(C)C)nc3ccsc23)n1"
  pKi: 6.52
- Molecule: "CCCn1c(=O)n(C)c(=O)c2[nH]c(-c3ccc(OCC(=O)N4CCN(c5ccc(C(F)(F)F)cc5)CC4)cc3)cc21"
  pKi: 7.05
- Molecule: "O=C(Cc1cccc2ccccc12)Nc1nc2nn(CCCc3ccccc3)cc2c2nc(-c3ccco3)nn12"
  pKi: 6.15
- Molecule: "O=C(O)c1cnc(NCC2CCCCC2)n2nc(-c3ccco3)nc12"
  pKi: 5.56
- Molecule: "CCC(=O)Nc1cc(-c2ccsc2)nc(-c2ccsc2)n1"
  pKi: 7.40
- Molecule: "O=C(Nc1nc2ccccc2n2nc(-c3ccco3)nc12)c1cccs1"
  pKi: 7.30
- Molecule: "CC(=O)Nc1cc(N2CCCC2C)nc(-n2nc(C)cc2C)n1 (stereo unspecified)"
  pKi: 5.98
- Molecule: "O=C(Nc1ccc(-c2ccncc2)c(-c2cnco2)n1)C1CC1"
  pKi: 6.20
- Molecule: "CCOC(=O)c1cnc(NC)n2nc(-c3ccco3)nc12"
  pKi: 6.01
- Molecule: "Cl.Cn1cc2c(nc(NC(=O)NC3CCN(CC4CCCCC4)CC3)n3nc(-c4ccco4)nc23)n1"
  pKi: 5.47

(P) Nc1nc(NC(=O)CCc2ccccc2)nc2c1ncn2[C@@H]1O[C@H](CO)[C@@H](O)[C@H]1O
(Q) NCC(O)CNc1nc2ccccc2n2nc(-c3ccco3)nc12 (stereo unspecified)
Which value of pKi is greater, the one for P or the one for Q ? Pick one and reply with its label.
Q

(a) CCN(C(C)=O)c1ccc(OC)c2nc(NC(=O)c3ccc(S(C)(=O)=O)cc3)sc12
(b) O=C(/C=C/c1c(-c2ccccc2)nn2ccccc12)N1CCCC[C@@H]1CCO
Of a versus b , which is the one with smaller reported pKi? Pick one and reply with its label.
a
(a: 6.41, b: 9.31)

(a) COc1ccccc1C(=O)Nc1nc(-c2ccccc2)n[nH]1
(b) CNc1ncnc2c1ncn2[C@@H]1SC[C@@H](O)[C@H]1O
Of a versus b , which is the one with smaller reported pKi? Pick one and reply with its label.
b
(b: 5.97, a: 6.30)

(A) O=c1oc2c(O)c(O)ccc2cc1-c1ccc(O)c(O)c1
(B) CCOC(=O)C(Nc1nc2nn(C)cc2c2nc(-c3ccco3)nn12)C(C)C (racemic)
(C) COc1ccc(-c2nc(-c3ccccc3)c3[nH]cnc3n2)cc1
Which order do these items take when sorted by rising pKi? List them. Return value: ordered labels per request.
A, B, C

(I) CCn1c(=O)c2nc(-c3cnn(Cc4cccc(C(F)(F)F)c4)c3)[nH]c2n(CC)c1=O
(II) CCOC(=O)c1ccc(N2CCN(c3nc(N)c4nc(-c5ccco5)sc4n3)CC2)cc1
Which value of pKi is greater, the one for I or the one for II ? Pick one and reply with its label.
I
(I: 6.24, II: 5.34)

---

Across several publications, the following Ki results were reported for the protein given by its sequence.
Sequence of the target: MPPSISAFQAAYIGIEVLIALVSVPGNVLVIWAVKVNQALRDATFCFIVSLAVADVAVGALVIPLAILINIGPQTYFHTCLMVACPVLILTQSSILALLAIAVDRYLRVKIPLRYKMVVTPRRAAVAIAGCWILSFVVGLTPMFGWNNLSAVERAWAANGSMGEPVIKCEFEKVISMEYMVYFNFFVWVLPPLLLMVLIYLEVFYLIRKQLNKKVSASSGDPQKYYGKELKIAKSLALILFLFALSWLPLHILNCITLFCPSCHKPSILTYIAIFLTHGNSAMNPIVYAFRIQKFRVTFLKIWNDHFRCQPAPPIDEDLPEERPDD

Solved entries (count: 5):
- Molecule: "Cc1nc2c([nH]1)c1nc(C)[nH]c1c1nc(C)[nH]c21"
  Meas Value: "> 10 µM"
- Molecule: "O=c1c(-c2ccco2)nnc2n(Cc3ccccc3)c3ccccc3n12"
  Meas Value: "> 10 µM"
- Molecule: "O=C(Nc1nc(-c2ccccc2)c(-c2nc3ccccc3c(=O)n2-c2ccc(Cl)cc2)s1)c1ccco1"
  Meas Value: "> 1 µM"
- Molecule: "CCCSc1nc(NC(C)=O)cc(OC(C)c2ccccc2)n1 (racemic)"
  Meas Value: "> 1 µM"
- Molecule: "Nc1nc(-c2sc(NC(=O)c3ccccc3)nc2-c2ccccc2)nc2sc3c(c12)CCCC3"
  Meas Value: "> 10 µM"

Continue with the next molecule.
May I ask what Ki has been recorded for O=C(Nc1nc(-c2ccccc2)c(-c2nc3ccccc3c(=O)n2-c2ccccc2)s1)c1ccccc1 ?
> 1 µM

---

Across several publications, the following Ki results were reported for the protein given by its sequence.
Target protein (sequence): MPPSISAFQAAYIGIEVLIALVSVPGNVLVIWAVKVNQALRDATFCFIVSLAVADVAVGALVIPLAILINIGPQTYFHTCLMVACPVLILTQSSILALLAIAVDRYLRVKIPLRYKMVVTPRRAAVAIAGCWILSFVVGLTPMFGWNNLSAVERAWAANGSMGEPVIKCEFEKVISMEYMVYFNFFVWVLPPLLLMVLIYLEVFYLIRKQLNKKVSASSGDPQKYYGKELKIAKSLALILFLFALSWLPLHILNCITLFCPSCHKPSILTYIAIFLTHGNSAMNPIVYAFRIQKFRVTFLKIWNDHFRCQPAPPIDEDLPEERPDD

Solved entries (count: 2):
- Compound Structure: "Cc1cccc2cc(-c3ccc([N+](=O)[O-])cc3)c(=O)oc12"
  Ki: "> 100 µM"
- Compound Structure: "Cc1ccc(Nc2nc(C)c(C(=O)Nc3sc4c(c3C#N)CCCC4)s2)cc1"
  Ki: "> 30 µM"

Kindly state the measured Ki obtained for Cn1cnc2ncnc(N)c21 with the protein given by its sequence.
> 100 µM

Moving on to the next compound: CN1CCC(NC(=O)Nc2nc3nn(C)cc3c3nc(-c4ccco4)nn23)CC1
> 5 µM

---

Across several publications, the following Ki results were reported for the protein given by its sequence.
Target chain: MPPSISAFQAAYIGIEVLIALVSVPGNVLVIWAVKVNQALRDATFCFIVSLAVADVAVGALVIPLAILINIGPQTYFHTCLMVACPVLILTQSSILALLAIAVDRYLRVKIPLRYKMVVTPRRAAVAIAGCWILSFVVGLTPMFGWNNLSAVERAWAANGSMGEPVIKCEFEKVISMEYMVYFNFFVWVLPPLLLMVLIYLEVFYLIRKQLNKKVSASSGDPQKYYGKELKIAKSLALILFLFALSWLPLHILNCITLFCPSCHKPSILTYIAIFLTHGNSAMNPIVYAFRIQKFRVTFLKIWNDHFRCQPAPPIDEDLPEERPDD

May I ask what Ki has been recorded for O=C(Nc1nc(-c2ccccc2)c(-c2nc3ccccc3c(=O)n2-c2ccc(Cl)cc2)s1)c1ccccc1 ?
> 1000 nM

Moving on to the next compound: C#CCOc1cccc(-c2cn3c(=O)n(-c4ccccc4)nc3c(N)n2)c1
45 nM

Moving on to the next compound: CSc1c2c(nc(N)n3nc(-c4ccc(CN5CCN(C)CC5)o4)nc23)nn1C
> 1000 nM
